Values were extracted from patent US20260365653A1.

Target: mutEGFR (D770_N771insSVD) (Homo sapiens, UniProt P00533, DUP768-770)
Construct: GST-EGFR #3 (SVD between D770 and N771); made in house; host or cells: Sf9 insect cells (baculovirus)
Sequence (P00533 with tags, fused parts or gaps DUP768-770): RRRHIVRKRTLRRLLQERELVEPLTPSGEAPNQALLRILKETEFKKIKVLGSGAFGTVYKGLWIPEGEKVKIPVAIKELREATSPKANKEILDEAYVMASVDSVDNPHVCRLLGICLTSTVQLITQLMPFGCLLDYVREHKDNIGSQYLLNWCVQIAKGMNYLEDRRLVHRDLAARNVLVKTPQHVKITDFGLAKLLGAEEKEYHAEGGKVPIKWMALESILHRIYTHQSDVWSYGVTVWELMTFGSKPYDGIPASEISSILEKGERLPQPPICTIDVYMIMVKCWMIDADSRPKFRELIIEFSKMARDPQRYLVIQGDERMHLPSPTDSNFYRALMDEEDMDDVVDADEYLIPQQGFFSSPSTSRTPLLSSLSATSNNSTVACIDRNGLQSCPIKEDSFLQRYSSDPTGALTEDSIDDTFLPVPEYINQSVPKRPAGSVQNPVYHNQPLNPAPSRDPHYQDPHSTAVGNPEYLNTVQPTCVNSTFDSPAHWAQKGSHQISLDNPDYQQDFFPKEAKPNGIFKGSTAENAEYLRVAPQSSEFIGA
Test: Exon20-Mutant-EGFR (D770_N771insSVD) kinase assay (TR-FRET)
Assay type: biochemical
Conditions: mutEGFR (D770_N771insSVD) kinase assay IC50, Table 2a; D770_N771insSVD; 2 mM ATP
pIC50 for assorted molecules
Field pIC50 (float): negative decimal logarithm of the concentration in molar.

C=C(CN1CCOCC1)C(=O)N1CCn2nc(-c3ccc(F)cc3)c(-c3ccncc3)c2C1 ... 6.57

[in] Need pIC50 of C=CC(=O)N1CCn2nc(-c3cccc(Cl)c3)c(-c3ccnc4[nH]cc(C)c34)c2C1 , thanks.
[out] 7.36

[in] Need pIC50 of C=CC(=O)N1Cc2c(-c3ccncc3)c(-c3ccc(Cl)cc3F)nn2CC1C (stereo not shown) , thanks.
[out] 9.92

[in] Need pIC50 of C=CC(=O)N1CCn2nc(-c3cccc(C#N)c3)c(-c3ccnc4[nH]cc(C)c34)c2C1 , thanks.
[out] 6.01
